- SYSTEM: Cholesteryl ester transfer protein (Homo sapiens, UniProt P11597)
- Sequence (P11597 whole entry): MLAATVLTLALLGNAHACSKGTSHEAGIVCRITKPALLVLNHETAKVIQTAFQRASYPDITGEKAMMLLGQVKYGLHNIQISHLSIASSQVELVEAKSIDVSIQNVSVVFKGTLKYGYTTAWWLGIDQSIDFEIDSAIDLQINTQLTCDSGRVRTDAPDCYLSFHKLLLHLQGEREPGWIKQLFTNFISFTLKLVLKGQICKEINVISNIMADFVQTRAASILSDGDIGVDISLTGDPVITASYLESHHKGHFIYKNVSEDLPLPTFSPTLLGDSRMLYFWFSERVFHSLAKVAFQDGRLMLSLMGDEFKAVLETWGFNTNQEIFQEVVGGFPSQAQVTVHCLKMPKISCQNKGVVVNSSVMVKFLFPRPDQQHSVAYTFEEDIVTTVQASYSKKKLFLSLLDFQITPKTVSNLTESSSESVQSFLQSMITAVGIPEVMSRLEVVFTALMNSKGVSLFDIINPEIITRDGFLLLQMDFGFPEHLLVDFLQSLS
- RUN_DESCRIPTION: Inhibition of CETP in human plasma measured every 30 mins for 120 mins by fluorescence method
EXPERIMENTAL_READOUT: IC50 (nM)

Solved cases below.
CCNC(=O)N1[C@H](CC)C[C@H](N(Cc2cc(C(F)(F)F)cc(C(F)(F)F)c2)c2ncc(Br)cn2)C[C@@H]1Cc1ccccc1 (racemic) : 4800
CC[C@@H]1C[C@H](N(Cc2cc(C(F)(F)F)cc(C(F)(F)F)c2)c2ncc(Br)cn2)C[C@H](Cc2ccccc2)N1C(=O)OC(C)C (racemic) : 200
CC[C@@H]1C[C@H](N(Cc2cc(Cl)cc(C(F)(F)F)c2)c2ncc(Br)cn2)C[C@H](Cc2ccccc2)N1C(=O)OC(C)(C)C (racemic) : 240
CC[C@@H]1C[C@H](N(Cc2cc(C(F)(F)F)cc(C(F)(F)F)c2)c2ncc(Br)cn2)C[C@H](Cc2ccccc2)N1C(=O)OC(C)(C)C (racemic) : 160
CC[C@@H]1C[C@H](N(Cc2cc(C(F)(F)F)cc(C(F)(F)F)c2)C(=O)OC)C[C@H](Cc2ccccc2)N1C(=O)OC(C)(C)C (racemic) : 771
CC[C@@H]1C[C@H](N(Cc2cc(C(F)(F)F)cc(C(F)(F)F)c2)c2ncc(N3CCOCC3)cn2)C[C@H](CC)N1C(=O)O[C@H]1CC[C@H](C(=O)O)CC1 : 150
CCC(CC)CC1(C(=O)Nc2ccccc2SC(=O)C(C)C)CCCCC1 [DALCETRAPIB] : 4100
CC[C@@H]1C[C@H](N(Cc2cc(C(F)(F)F)cc(C(F)(F)F)c2)c2ncc(N3CCOCC3)cn2)C[C@H](Cc2ccccc2)N1C(=O)OC(C)(C)C : 60

[I] Cc1cc(C)c2c(c1)[C@@H](N(Cc1cc(C(F)(F)F)cc(C(F)(F)F)c1)c1nnn(C)n1)CCCN2C[C@H]1CC[C@H](C(=O)O)CC1 [EVACETRAPIB]
[II] CC[C@@H]1C[C@H](N(Cc2cc(C(F)(F)F)cc(C(F)(F)F)c2)C(=O)OC)C[C@H](CC)N1C(=O)OC(C)(C)C
# compare IC50 for I vs II ; return the one with the smaller value State your choice using its label.
I

[1] CC[C@@H]1C[C@H](N(Cc2cc(C(F)(F)F)cc(C(F)(F)F)c2)c2ncc(N3CCOCC3)cn2)C[C@H](CC)N1C(=O)OC(C)C
[2] CCCC(=O)N1[C@H](CC)C[C@H](N(Cc2cc(C(F)(F)F)cc(C(F)(F)F)c2)c2ncc(Br)cn2)C[C@@H]1Cc1ccccc1 (racemic)
Quick check, higher IC50 between 1 and 2 ? State your choice using its label.
2

###

- RUN_DESCRIPTION: AUC (infinity) in Sprague-Dawley rat at 1 mg/kg, iv or 3 mg/kg, po by LC-ESI-MS/MS analysis
- Assay type: ADME, organism-based
- REPORTED_CONDITIONS: in vivo
EXPERIMENTAL_READOUT: AUC(0-inf) (µM·h)

CC[C@@H]1C[C@H](N(Cc2cc(C(F)(F)F)cc(C(F)(F)F)c2)c2ncc(-c3cnn(C)c3)cn2)C[C@H](CC)N1C(=O)O[C@H]1CC[C@H](C(=O)O)CC1 : 27.2

[I] CC[C@@H]1C[C@H](N(Cc2cc(C(F)(F)F)cc(C(F)(F)F)c2)c2ncc(N3CCOCC3)cn2)C[C@H](Cc2ccccc2)N1C(=O)OC(C)(C)C
[II] CC[C@@H]1C[C@H](N(Cc2cc(C(F)(F)F)cc(C(F)(F)F)c2)c2ncc(N3CCOCC3)cn2)C[C@H](CC)N1C(=O)O[C@H]1CC[C@H](C(=O)O)CC1
Quick check, higher AUC(0-inf) between I and II ? State your choice using its label.
II
(II: 28.5 µM·h, I: 0.456 µM·h)

###

- RUN_DESCRIPTION: Half life in Sprague-Dawley rat at 1 mg/kg, iv or 3 mg/kg, po by LC-ESI-MS/MS analysis
- Type: ADME, organism-based
- REPORTED_CONDITIONS: in vivo
EXPERIMENTAL_READOUT: half-life (h)

CC[C@@H]1C[C@H](N(Cc2cc(C(F)(F)F)cc(C(F)(F)F)c2)c2ncc(-c3cnn(C)c3)cn2)C[C@H](CC)N1C(=O)O[C@H]1CC[C@H](C(=O)O)CC1 : 5.8
CC[C@@H]1C[C@H](N(Cc2cc(C(F)(F)F)cc(C(F)(F)F)c2)c2ncc(N3CCOCC3)cn2)C[C@H](CC)N1C(=O)OC(C)C : 4.6
CC[C@@H]1C[C@H](N(Cc2cc(C(F)(F)F)cc(C(F)(F)F)c2)c2ncc(N3CCOCC3)cn2)C[C@H](Cc2ccccc2)N1C(=O)OC(C)(C)C : 7.4
CC[C@@H]1C[C@H](N(Cc2cc(C(F)(F)F)cc(C(F)(F)F)c2)c2ncc(N3CCOCC3)cn2)C[C@H](CC)N1C(=O)O[C@H]1CC[C@H](C(=O)O)CC1 : 5.6

###

Catalogue of IC50 readings, one per entry.
- SYSTEM: Cytochrome P450 2D6 (Homo sapiens)
- Sequence (P10635 whole entry): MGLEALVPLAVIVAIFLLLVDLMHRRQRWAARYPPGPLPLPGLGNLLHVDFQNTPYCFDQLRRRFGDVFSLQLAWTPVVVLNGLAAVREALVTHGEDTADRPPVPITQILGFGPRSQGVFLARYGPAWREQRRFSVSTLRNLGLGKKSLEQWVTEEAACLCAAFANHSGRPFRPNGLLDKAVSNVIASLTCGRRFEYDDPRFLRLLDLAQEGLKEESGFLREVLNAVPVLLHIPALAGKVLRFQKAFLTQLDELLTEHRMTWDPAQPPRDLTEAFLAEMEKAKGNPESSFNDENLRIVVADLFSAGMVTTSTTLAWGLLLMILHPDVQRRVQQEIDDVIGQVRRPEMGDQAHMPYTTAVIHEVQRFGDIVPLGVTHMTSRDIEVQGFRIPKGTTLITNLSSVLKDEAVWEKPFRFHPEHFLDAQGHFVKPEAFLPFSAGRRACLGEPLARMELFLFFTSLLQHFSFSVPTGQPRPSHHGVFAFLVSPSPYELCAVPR
- RUN_DESCRIPTION: Inhibition of CYP2D6 (unknown origin)
- Format: ADME

Solved cases below.
CC[C@@H]1C[C@H](N(Cc2cc(C(F)(F)F)cc(C(F)(F)F)c2)c2ncc(N3CCOCC3)cn2)C[C@H](Cc2ccccc2)N1C(=O)OC(C)(C)C : > 50 µM
CC[C@@H]1C[C@H](N(Cc2cc(C(F)(F)F)cc(C(F)(F)F)c2)c2ncc(N3CCOCC3)cn2)C[C@H](CC)N1C(=O)OC(C)C : > 30 µM
CC[C@@H]1C[C@H](N(Cc2cc(C(F)(F)F)cc(C(F)(F)F)c2)c2ncc(-c3cnn(C)c3)cn2)C[C@H](CC)N1C(=O)O[C@H]1CC[C@H](C(=O)O)CC1 : 31 µM

Now consider a different compound.
Name the recorded IC50 of the item CC[C@@H]1C[C@H](N(Cc2cc(C(F)(F)F)cc(C(F)(F)F)c2)c2ncc(N3CCOCC3)cn2)C[C@H](CC)N1C(=O)O[C@H]1CC[C@H](C(=O)O)CC1 in your answer.
> 50 µM

###

- RUN_DESCRIPTION: Oral bioavailability in Sprague-Dawley rat at 3 mg/kg by LC-ESI-MS/MS analysis
- Format: ADME, organism-based
- REPORTED_CONDITIONS: in vivo
EXPERIMENTAL_READOUT: bioavailability (%)

CC[C@@H]1C[C@H](N(Cc2cc(C(F)(F)F)cc(C(F)(F)F)c2)c2ncc(N3CCOCC3)cn2)C[C@H](CC)N1C(=O)OC(C)C : 35
CC[C@@H]1C[C@H](N(Cc2cc(C(F)(F)F)cc(C(F)(F)F)c2)c2ncc(N3CCOCC3)cn2)C[C@H](CC)N1C(=O)O[C@H]1CC[C@H](C(=O)O)CC1 : 58

[I] CC[C@@H]1C[C@H](N(Cc2cc(C(F)(F)F)cc(C(F)(F)F)c2)c2ncc(-c3cnn(C)c3)cn2)C[C@H](CC)N1C(=O)O[C@H]1CC[C@H](C(=O)O)CC1
[II] CC[C@@H]1C[C@H](N(Cc2cc(C(F)(F)F)cc(C(F)(F)F)c2)c2ncc(N3CCOCC3)cn2)C[C@H](Cc2ccccc2)N1C(=O)OC(C)(C)C
Quick check, higher bioavailability between I and II ? State your choice using its label.
I
(I: 43%, II: 3%)

###

- RUN_DESCRIPTION: 1-Octanol-phosphate buffered saline partition coefficient, log D of compound at […] by tandem mass spectrometry method
- Assay type: physicochemical
EXPERIMENTAL_READOUT: logD

Cc1cc(C)c2c(c1)[C@@H](N(Cc1cc(C(F)(F)F)cc(C(F)(F)F)c1)c1nnn(C)n1)CCCN2C[C@H]1CC[C@H](C(=O)O)CC1 : 5.7
CC[C@@H]1C[C@H](N(Cc2cc(C(F)(F)F)cc(C(F)(F)F)c2)c2ncc(-c3cnn(C)c3)cn2)C[C@H](CC)N1C(=O)O[C@H]1CC[C@H](C(=O)O)CC1 : 5.2
